Target: Steryl-sulfatase (Homo sapiens)
Sequence (whole entry): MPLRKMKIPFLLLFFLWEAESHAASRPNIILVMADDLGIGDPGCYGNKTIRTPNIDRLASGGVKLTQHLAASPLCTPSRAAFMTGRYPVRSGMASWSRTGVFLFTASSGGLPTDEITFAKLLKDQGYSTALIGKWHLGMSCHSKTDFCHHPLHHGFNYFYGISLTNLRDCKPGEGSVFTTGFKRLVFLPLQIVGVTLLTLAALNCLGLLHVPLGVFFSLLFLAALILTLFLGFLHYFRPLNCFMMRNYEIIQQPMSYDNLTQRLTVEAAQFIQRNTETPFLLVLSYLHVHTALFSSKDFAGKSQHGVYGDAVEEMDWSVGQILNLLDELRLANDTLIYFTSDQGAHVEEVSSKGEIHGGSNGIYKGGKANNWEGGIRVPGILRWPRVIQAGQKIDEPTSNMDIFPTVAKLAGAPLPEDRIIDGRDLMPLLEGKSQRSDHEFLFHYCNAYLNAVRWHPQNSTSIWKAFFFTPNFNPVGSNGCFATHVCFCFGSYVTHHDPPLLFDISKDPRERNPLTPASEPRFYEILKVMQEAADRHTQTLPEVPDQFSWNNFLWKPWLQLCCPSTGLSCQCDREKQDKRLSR
Assay: Inhibition of steroid sulfatase in human MCF7 cells assessed as conversion of [3H]E1S to [3H]E1 and [3H]E2 at 0.1 uM after 5 hrs by liquid scintillation counting
Format: cell-based
Quantity Measured: inhibition (%)
Please respond with the number in % and leave the unit unwritten.

CCCCC(CCCC)(c1ccc(OS(N)(=O)=O)c(C)c1)c1ccc(OS(N)(=O)=O)c(C)c1    10.3
C[Si](C)(c1ccc(OS(N)(=O)=O)cc1)c1ccc(OS(N)(=O)=O)cc1    35.8

Moving on to the next molecule.
Value of measured inhibition for the entry `NS(=O)(=O)Oc1ccc(Sc2ccc(OS(N)(=O)=O)cc2)cc1` : 57.1

Data provenance is ChEMBL document CHEMBL3232760.
